Test system: 786-0
TEST PROTOCOL: NCI tumour cell line growth inhibition, 48 h
Calls of active or inactive are those of the source. No stated cut-off is given here; in the data, active = GI50 up to about 1.1 µM and inactive = higher.
Classes used: 1 (active), -1 (inactive)

> print(dat)
                                    compound  label.value
 1                 CC(C)CCc1c(Cl)nc(Cl)nc1Cl           -1
 2  COc1ccc(N2C(=O)CSC2c2cc3cc(Br)ccc3nc2Cl)cc1 (stereo not given)           -1
 3  COCCOC(C)C(=O)C(O)S(=O)(=O)O (stereo not given)           -1
 4  Cc1ccc(O)c(Cc2nc3ccccc3nc2-c2cccc(Br)c2)c1           -1
 5  CCOc1ccc(C2=NN(CC)C(=O)C(C3C(=O)N(c4ccccc4)N=C3C)C2)cc1 (stereo not given)           -1
 6  COC(=O)C1=C(c2cc(OC)c(OC)c(OC)c2)OC(c2ccc3c(c2)OCO3)C1 (stereo not given)           -1
 7                               Cc1cc(O)no1           -1
 8  O=C1c2ccccc2-c2c1c(-c1ccc([N+](=O)[O-])cc1)nc1ccc3ccccc3c21           -1
 9  CCC1CN2CCc3cc(OC)c(OC)cc3C2CC1CC1c2cc(OC)c(OC)cc2CCN1C(=O)C1CCCN1C(=O)OCc1ccccc1 (stereo not given)           -1
10  CCOC(=O)C(Cc1ccc(N(CCCl)CCCl)cc1)NC(=O)C(Cc1ccccc1)NC(C)=O (stereo not given)            1

----------
System: SN12C
TEST PROTOCOL: NCI tumour cell line growth inhibition, 48 h
Activity calls are given as the source filed them. Rule as the data show it: active = GI50 up to about 1.1 µM and inactive = higher.
Possible outcomes: active, inactive

COMPOUND	LABEL VALUE
COc1ccc(C(=O)C(c2ccc(OC)cc2)C2(O)C(=O)Nc3c2ccc(Cl)c3C)cc1 (configuration not stated)	inactive
CC(=O)O[C@H]1[C@@H](OC(C)=O)C(C)(C)/C=C/[C@H](C)C(=O)[C@@]2(OC(C)=O)C[C@@](C)(OC(C)=O)[C@H](OC(C)=O)[C@@H]2[C@H]2OC(=O)CC[C@@]2(OC(=O)c2ccccc2)[C@@H]1OCC(C)C	inactive
Cc1ccc(O)c(Cc2nc3ccccc3nc2-c2cccc(Br)c2)c1	inactive
CC(=O)NN1C(=O)C(Cc2ccccc2)c2ccccc21 (configuration not stated)	inactive
Cc1cc(NC[C@H](O)[C@H](O)[C@H](O)CO)c(Sc2cc(=O)[nH]c(=O)[nH]2)cc1C	inactive
COc1ccc(C(c2cc3c(cc2O)OCO3)N2CCOCC2)cc1OC (configuration not stated)	inactive
COC1=CC(O)(CC(N)=O)c2ccccc2C1=O (configuration not stated)	inactive
CCN(CC)CC/N=c1\c2cc(OC)ccc2[nH]c2c([N+](=O)[O-])ccc(NCCN(CC)CC)c12	active
Fc1cccc(F)c1C1SCc2nc3ccc(Cl)cc3n21 (configuration not stated)	inactive
Nc1nc(N)c2c(CCc3ccc(C(=O)N[C@@H](CCC(=O)O)C(=O)O)cc3)ccnc2n1	active
NC1C2C=CC(C2)C1C(=O)O (configuration not stated)	inactive
CCN(CC)C(=O)c1c(Cl)cc(N(CC)CC)oc1=O	inactive
COc1ccc2c(c1[N+](=O)[O-])CC[C@@H]1[C@@H]2CC[C@]2(C)C(=O)CC[C@@H]12	inactive
CN(C)/N=C/c1cn(C)c(=O)n(C)c1=O	inactive
CC(C)CC(NC(=O)C(CI)Cc1ccccc1)C(=O)Nc1ccccc1 (configuration not stated)	inactive
CC(=O)Nc1ccccc1-c1nc2ccccc2nc1-c1ccccc1	inactive
CN1CC[C@]2(C)c3ccc(O)cc3CC3CCCC1C32C (some centres not stated)	inactive
C/C=C/C=C/C1=NN(c2cccc(S(=O)(=O)O)c2)C2(C1)SCC(=O)N2c1nc2ccccc2s1 (configuration not stated)	inactive
COc1ccc(OC)c(/C=C/c2ccnc3ccccc23)c1	active
Cc1ccc(-n2c(Cn3nnc(-c4cccnc4)n3)nn(C3OC(COC(=O)c4ccccc4)C(OC(=O)c4ccccc4)C3OC(=O)c3ccccc3)c2=S)cc1 (configuration not stated)	inactive
CCCCCCNC(=O)CCC(NC(=O)c1ccc(N(C)Cc2cnc3nc(N)nc(N)c3n2)cc1)C(=O)NCCCCCC (configuration not stated)	inactive
O=C(O)C(F)(OC(F)(F)C(F)(F)C(F)(F)F)C(F)(F)F (configuration not stated)	inactive
Cn1c(=O)ccc2c(=O)c3ccccc3oc21	inactive
Cc1cn(C2CC(OC3CCCCO3)C(CO)O2)c(=O)[nH]c1=O (configuration not stated)	inactive
CCc1cccc(C)c1N1C(=O)C(=O)C(c2nc3ccccc3o2)/C(=N/NC(=S)NN)C1=O (configuration not stated)	inactive
Cc1cc(S(=O)(=O)Nc2nc(N)nc(N(C)C)n2)c(S)cc1Cl	inactive
CC[C@]1(c2ccc3c(c2)OCO3)C=[N+]([O-])O[C@H](OC2CCCC2(c2ccccc2)c2ccccc2)[C@@H]1OC(C)=O (some centres not stated)	inactive

----------
Tested on: ACHN
TEST PROTOCOL: NCI tumour cell line growth inhibition, 48 h
Calls of active or inactive are those of the source. Rule as the data show it: active = GI50 up to about 1.1 µM and inactive = higher.
# GI50 annotations
MEASUREMENT KIND: GI50

> print(dat)
                                    compound  measurement.kind                result
 1   N/C(=N\O)N/N=C\c1c2ccccc2c(Cl)c2ccccc12              GI50    4.33 µM (inactive)
 2          Cc1nc2c(n1CCCl)C(=O)c1ccccc1C2=O              GI50    28.9 µM (inactive)
 3                      Cc1nccc2c1cnc1ccnn12              GI50   > 100 µM (inactive)
 4                   C1CCNCC1.S=C(S)N1CCCCC1              GI50    87.7 µM (inactive)
 5        O=c1[nH]c2ccc(CC(=S)N3CCOCC3)cc2s1              GI50   > 100 µM (inactive)
 6  COC1=CC(O)(CC(N)=O)c2ccccc2C1=O (stereo unspecified)              GI50   > 100 µM (inactive)
 7  COc1cc(C2c3cc4c(cc3OC(Nc3ccc(C(=O)O)cc3)C2C)OCO4)cc(OC)c1OC (stereo unspecified)              GI50    1.38 µM (inactive)
 8  COc1ccc2c(c1)CC[C@@H]1[C@@H]2CC[C@]2(C)C(=O)/C(=C/c3ccncc3)C[C@@H]12              GI50    42.5 µM (inactive)
 9         CCN(CC)C(=S)SS(=O)(=O)c1ccc(N)cc1              GI50  > 78.3 µM (inactive)
10  COc1ccc(Oc2nc3c(N)cc(C(F)(F)F)cc3nc2-c2ccccc2)cc1              GI50    28.2 µM (inactive)
11  CCCCCCC(=O)C/C(CCC(=O)N(Cc1ccccc1)Cc1ccccc1)=N\NC(N)=O              GI50   > 100 µM (inactive)

----------
Test system: OVCAR-8
TEST PROTOCOL: NCI tumour cell line growth inhibition, 48 h
Active and inactive are the calls of the source. No stated cut-off is given here; in the data, active = GI50 up to about 1.1 µM and inactive = higher. Starred links: 1 amine or outer side, 2 acyl side, 3 side chain; linkers in the order of their positions; H or OH if unused. Positions of bridges follow the written chain, without caps; N, C: chain ends. Non-standard residues stand in square brackets, D forms with d. Residues, ends and D or L forms follow the SMILES beside them. ξ: configuration not given here. *: point of attachment. γ4hArg(2R,3R-(OH)2) = N=C(N)NCCC[C@H](N[*:1])[C@@H](O)[C@@H](O)C(=O)[*:2]; Gln(3S,4R-Me2) = C[C@H]([C@H](N)C(=O)O)[C@@H](C)C(N)=O; X50 = CC(C)C[C@H](C)[C@@H](O)[C@@H](C)C(=O)*; X51 = COC(c1ccc(O)cc1)C(N[*:1])C(=O)[*:2]; NMeQ = CN[C@@H](CCC(N)=O)C(=O)O; Thr(3ξ) = CC(O)[C@H](N)C(=O)O; NMeA = CN[C@@H](C)C(=O)O
Outcome codes: TRUE = active, FALSE = inactive

COMPOUND	LABEL VALUE
CC(C)c1cccc(C(C)C)c1N1C(=O)C(=O)C(c2nc3ccccc3o2)C(=O)C1=O	FALSE
Cc1ccc(O)c(Cc2nc3ccccc3nc2-c2cccc(Br)c2)c1	FALSE
CCCCCCCCCCCCCCCC(=O)OC1C(O)C(O)C(O)C(O)C12CO2 (centres undefined)	FALSE
CC(=O)C1C(=O)C(=O)N(c2ccc(Br)cc2)C1=O (centres undefined)	FALSE
CN(C)CCNC(=O)c1cc(-c2nccn2C)nc2ccccc12	FALSE
C/C=C1/CN2CCC34C(=C(C(=O)OC)C1CC23)Nc1ccc(O)cc14 (centres undefined)	FALSE
Cn1c(=O)c2sc3c4sc5c(=O)n(C)c6ccccc6c5c4sc3c2c2ccccc21	FALSE
C[C@@]12c3c4ccc(C=O)c3Oc3ccc(C=O)c(c31)Oc1c(C=O)ccc(c12)O4	FALSE
COc1ccc(C(c2cc3c(cc2O)OCO3)N2CCOCC2)cc1OC (centres undefined)	FALSE
CC(C)CC(=O)OC[n+]1cccc(-c2c(COC(=O)NC(C)C)c(COC(=O)NC(C)C)c3n2CCC3)c1	FALSE
COc1ccc(/C=C2\NC(=S)N(CN3CCOCC3)C2=O)cc1	FALSE
C[Si](C)(C)/C=C\CCO	FALSE
CCN(CC)c1c(C)c(C(=O)OC)nn1-c1ccccc1	FALSE
CCOC1=C(c2ccccc2)N2CCCCC2O1 (centres undefined)	FALSE
Cc1cc(CN(Cc2ccccc2)Cc2nc3ccccc3[nH]2)c(O)c(CN(Cc2nc3ccccc3[nH]2)Cc2nc3ccccc3[nH]2)c1	FALSE
Oc1ncc(N(CCCl)CCCl)c(O)n1	FALSE
CC(C)(C)C(=O)OCC(COC(=O)C(C)(C)C)[N+](=O)[O-]	FALSE
Cc1nccc2c1cnc1ccnn12	FALSE
O=C1Nc2ccccc2/C1=N/N1C(=O)/C(=C/c2ccccc2S)N=C1c1ccccc1	FALSE
CC1(C)OB(O)OC1(C)C	FALSE
CC1(C2COC(=O)C2)SCCCS1 (centres undefined)	FALSE
COC(c1ccc(O)cc1)C1NC(=O)[C@H](CCC(N)=O)N(C)C(=O)[C@H](CC(C)C)NC(=O)[C@@H](CCCN=C(N)N)NC(=O)[C@H](C(C)O)NC(=O)[C@@H](NC(=O)[C@@H](NC(=O)[C@H](O)[C@H](O)[C@H](CCCN=C(N)N)NC(=O)[C@H](C)NC(=O)[C@H](C)[C@H](O)[C@@H](C)CC(C)C)[C@@H](C)[C@@H](C)C(N)=O)[C@@H](C)OC(=O)[C@H](C)N(C)C1=O (stereo partly drawn) (X50-A[γ4hArg(2R,3R-(OH)2)][Gln(3S,4R-Me2)]T[Thr(3ξ)][dR]L[NMeQ][X51][NMeA]; ester 4-C)	TRUE
COc1c(C(=O)O)cccc1-c1cccc(C(=O)NCCN(CCNC(=O)c2cccc(-c3cccc(C(=O)O)c3OC)c2OC)CCNC(=O)c2cccc(-c3cccc(C(=O)O)c3OC)c2OC)c1OC	FALSE
CC(=O)Nc1ccc(-c2nnc(SCC(=O)Nc3ccc([N+](=O)[O-])cc3)o2)cc1	FALSE
NS(=O)(=O)c1ccc(NC(=S)NC(=O)Nc2ccc(Cl)c(Cl)c2)cc1	FALSE
CN(C)CCCNc1cnc2cc3ccccc3cc2n1	FALSE
CN(C)c1ccc(N=O)c(O)c1.CN(C)c1ccc(N=O)c(O)c1.[SiH4]	FALSE
O=C1CSC(c2c[nH]c3ccccc23)N1c1cccc(Cl)c1 (centres undefined)	FALSE
CC(C)(C)c1ccc2c(c1)C(=O)c1ccccc1C2=O	FALSE
CCCC(=O)OCC(O)CO (centres undefined)	FALSE
O=c1[nH]c(=O)c2ncn(-c3ccc([N+](=O)[O-])cn3)c2[nH]1	FALSE
Cn1c(=O)nc2n(-c3ccc(Cl)cc3Cl)c3ccccc3nc-2c1=O	FALSE
CC(=O)C1=C(C)N2C(=NC3=C(CCc4ccccc43)C2c2ccc(F)cc2)S1 (centres undefined)	FALSE
COC(=O)C(CCC(=O)CCl)N1C(=O)c2ccccc2C1=O (centres undefined)	FALSE
CC(=O)OC12c3ccccc3C1CCCCCC21OCCCO1 (centres undefined)	FALSE
O=C1NC(=O)C2(CCCCCC2)N1	FALSE
CCCCN(CCCC)CC(O)c1cc(-c2ccc(Cl)c(Cl)c2)nc2c(Cl)cc(Cl)cc12 (centres undefined)	FALSE
O=C(NCCCCCCO)c1cccc2cc3ccccc3nc12	FALSE
CCN(CC)CC/N=c1\c2cc(OC)ccc2[nH]c2c([N+](=O)[O-])ccc(NCCN(CC)CC)c12	TRUE
